experimentalSystem: recombinant human GST-Syk (Homo sapiens (Human), UniProt P43405)
procedureText: Homogeneous Time-Resolved Fluorescence (HTRF) assay for the recombinant human Syk enzyme
runParameters: recombinant human GST-Syk 5 pM, ATP 25 μM, read-out: rhSyk IC50
propertyMeasured: IC50 (nM)

Worked examples, 2 molecules total:
Cc1cc(Nc2cc(C(F)(F)F)ccn2)nc(-c2ccc(NC3CCC(C(=O)O)C(C)C3)nc2)c1 (single isomer, unassigned) [Example 3-3]; 1
CCC(O)(c1ccc(-c2cc(C)cc(Nc3cc(C(F)(F)F)ccn3)n2)cn1)C1CCC(C(=O)OC)CC1 (stereo not shown) [Example 1-16]; 12

(a) Cc1cc(Nc2cc(C(F)(F)F)ccn2)nc(-c2ccc(NC3CCN(C(=O)c4ccc(Oc5ccccc5)cc4)CC3)nc2)c1 [Example 4-114]
(b) Cc1cc(Nc2cc(C(F)(F)F)ccn2)nc(-c2ccc(NC3CCN(C(=O)c4ccncc4)CC3)nc2)c1 [Example 4-84]
Inquiry: Pick one: a or b . Which has the bigger IC50 number? Answer with the label corresponding to your selection.
Reply text: a

* * *

experimentalSystem: recombinant human GST-Syk (Homo sapiens (Human))
procedureText: Homogeneous Time-Resolved Fluorescence (HTRF) assay for the recombinant human Syk enzyme
runParameters: recombinant human GST-Syk 5 pM, ATP 25 μM, read-out: rhSyk IC50
propertyMeasured: IC50 (nM)

Cc1cc(Nc2cc(C(F)(F)F)ccn2)nc(-c2ccc(NC3CCN(C(=O)Cc4cccc(Oc5ccccc5)c4)CC3)nc2)c1; 57

(1) Cc1cc(Nc2cc(C(F)(F)F)ccn2)nc(-c2ccc(NC3CCN(C(=O)c4cccc5[nH]ncc45)CC3)nc2)c1
(2) Cc1cc(Nc2cc(C(F)(F)F)ccn2)nc(-c2ccc(NC3CCN(C(=O)c4ccc5nc(C)sc5c4)CC3)nc2)c1
Inquiry: Pick one: 1 or 2 . Which has the bigger IC50 number? Answer with the label corresponding to your selection.
Reply text: 1
(1: 9 nM, 2: 4 nM)

* * *

experimentalSystem: recombinant human GST-Syk (Homo sapiens (Human), UniProt P43405)
procedureText: Homogeneous Time-Resolved Fluorescence (HTRF) assay for the recombinant human Syk enzyme
runParameters: recombinant human GST-Syk 5 pM, ATP 25 μM, read-out: rhSyk IC50
propertyMeasured: IC50 (nM)

Cc1cc(Nc2cc(C(F)(F)F)ccn2)nc(-c2ccc(NC3CCN(C(=O)c4cccc(-c5ccccc5)c4)CC3)nc2)c1 [Example 4-122]; 3

(a) CCCCCCCOC(=O)[C@H]1CC[C@H](C(C)(O)c2ccc(-c3cc(C)cc(Nc4cc(C(F)F)ccn4)n3)cn2)CC1 (single isomer, unassigned) [Example 19-10]
(b) Cc1cc(Nc2cc(C(F)(F)F)ccn2)nc(-c2ccc(C3(O)CCN(C(=O)c4c[nH]c5cc(C)ccc45)CC3)nc2)c1 [Example 9-3]
(c) Cc1cc(Nc2cc(C(F)(F)F)ccn2)nc(-c2ccc(NC3CCN(C(=O)OC(C)(C)C)CC3)nc2)c1 [Example 2-4]
Inquiry: Rank the 3 molecules: largest IC50 first, smallest last. Sort the labels as requested; that list is your answer.
Reply text: a, c, b
(a: 670 nM, c: 91 nM, b: 10 nM)

(P) Cc1cc(Nc2cc(C(F)F)ccn2)nc(-c2ccc(C(C)(O)[C@H]3CC[C@H](C(=O)OC(C)OC(=O)C(C)C)CC3)nc2)c1 (single isomer, unassigned) [Example 21-5]
(Q) Cc1cc(Nc2cc(C(F)(F)F)ccn2)nc(-c2ccc(NC3CCN(C(=O)c4nccc5ncccc45)CC3)nc2)c1 [Example 4-35]
Inquiry: Which record shows the lower IC50: the first, P , or the second, Q ? Answer with the label corresponding to your selection.
Reply text: Q

(1) Cc1cc(Nc2cc(C(F)(F)F)ccn2)nc(-c2ccc(N3CCCC(N)C3)nc2)c1 (stereo not shown) [Example 5-1]
(2) COc1ccc2cc(C(C)C(=O)N3CCC(Nc4ccc(-c5cc(C)cc(Nc6cc(C(F)(F)F)ccn6)n5)cn4)CC3)ccc2c1 (stereo not shown) [Example 4-55]
Inquiry: Which record shows the lower IC50: the first, 1 , or the second, 2 ? Answer with the label corresponding to your selection.
Reply text: 1

(A) Cc1cc(Nc2cc(C(F)(F)F)ccn2)nc(-c2ccc(NC3CCN(C(=O)c4cc(-c5ccccc5)n[nH]4)CC3)nc2)c1 [Example 4-10]
(B) Cc1cc(Nc2cc(C(F)(F)F)ccn2)nc(-c2ccc(C3(O)CCN(C(=O)c4ccc5cccnc5c4)CC3)nc2)c1 [Example 9-1]
(C) Cc1cc(Nc2cc(C(F)(F)F)ccn2)nc(-c2ccc(NC3CCN(C(=O)Cc4ccc(O)c(Cl)c4)CC3)nc2)c1 [Example 4-100]
Inquiry: Rank the 3 molecules: largest IC50 first, smallest last. Sort the labels as requested; that list is your answer.
Reply text: B, A, C
(B: 30 nM, A: 14 nM, C: 9 nM)
